target.desc: T1, ERα-Y537S LBD-F-strep (PKA-responsive), without 14-3-3ζ (human (from the printed UniProt entry), UniProt P03372 302-595, S305A | Y537S | F591R | P592R)
T1 construct: the methods list ERα(PKA)-strep and ERα(PKA)-pT594-strep 'for WT ERα and Y537S mutant'; also called apo ERα-Y537S
T1 sequence (looked up): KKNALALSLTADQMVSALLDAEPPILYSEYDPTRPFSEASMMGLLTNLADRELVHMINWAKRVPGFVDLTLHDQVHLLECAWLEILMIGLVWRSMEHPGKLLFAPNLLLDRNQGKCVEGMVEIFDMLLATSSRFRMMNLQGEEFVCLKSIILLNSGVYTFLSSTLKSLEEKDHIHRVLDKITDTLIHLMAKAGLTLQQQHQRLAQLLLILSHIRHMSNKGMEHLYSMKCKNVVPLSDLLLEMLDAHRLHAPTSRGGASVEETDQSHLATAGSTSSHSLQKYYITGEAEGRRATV
assay.protocol: fluorescence polarisation; as a10 but in the presence of 100 μM E2; apparent KD
details: both partners purified
Where no end group is shown, it is not given here.
measured.quantity: Kd (nM)
Your answer should be a plain number; it is taken to be in nM.

**Query** Output Kd of LTERHKILHRLLQEGSPSD (also: fluorescein (FITC) label, position not given here) [fluorescein-labeled SRC-1 cofactor peptide (LXXLL motif of SRC-1/NCoA-1)]
**Result** 800
